Source: paper PMC5131496

# assay-target: P. falciparum heat shock protein 90 (PfHsp90) (Plasmodium falciparum, UniProt Q8IC05)
# Sequence (Q8IC05 1-211 limits assumed): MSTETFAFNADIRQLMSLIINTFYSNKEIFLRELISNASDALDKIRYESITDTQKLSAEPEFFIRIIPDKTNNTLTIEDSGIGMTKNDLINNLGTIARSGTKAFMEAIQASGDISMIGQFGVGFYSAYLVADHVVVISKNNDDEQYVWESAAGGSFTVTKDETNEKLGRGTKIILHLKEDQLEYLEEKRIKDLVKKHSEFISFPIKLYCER
# test-name: bis-ANS fluorescence competitive binding assay with purified recombinant GHKL domain
Reported pIC50 is given for each of the following compounds.
Notebook: values listed as pIC50 are -log10 of the concentration (mol/L).

INPUT: Item CC1NCCc2c1[nH]c1ccc(Cl)cc21 (centres unmarked) [17A] has what recorded pIC50?
OUTPUT: 4.91

***
INPUT: Item CC1NCCc2c1[nH]c1ccc(Br)cc21 (centres unmarked) [21A] has what recorded pIC50?
OUTPUT: 4.64
